target: HLA-B*40:01
assay.procedure: IEDB peptide-MHC binding, purified MHC/direct/fluorescence; filed as Kd, often an IC50 or EC50 that approximates it; bounds were set here for any values at or beyond the usual limits of such assays
cond: source organism: Ebola virus - Gabon (1994-1997)
reported.property: Kd

The sequence listed as QLSLKMLSL has a reported Kd of ≥ 20 µM

====

target: HLA-B*57:01
assay.procedure: IEDB peptide-MHC binding, purified MHC/direct/fluorescence; filed as Kd, often an IC50 or EC50 that approximates it; bounds were set here for any values at or beyond the usual limits of such assays
cond: source organism: Cryptosporidium hominis
pKd: −log10 of the molar value.
reported.property: pKd

The sequence listed as FMKSRVYSI has a reported pKd of ≤ 4.70

====

target: HLA-A*02:06
assay.procedure: IEDB peptide-MHC binding, purified MHC/competitive/radioactivity; filed as Kd, often an IC50 or EC50 that approximates it; bounds were set here for any values at or beyond the usual limits of such assays
cond: source organism: Lymphocytic choriomeningitis virus (strain Armstrong) (clone 53b)
reported.property: Kd

The sequence listed as SLNQTVHSL has a reported Kd of ≥ 28.1 µM

====

For each record, write down the corresponding pKd.
target: HLA-B*51:01
assay.procedure: IEDB peptide-MHC binding, purified MHC/competitive/radioactivity; filed as Kd, often an IC50 or EC50 that approximates it; bounds were set here for any values at or beyond the usual limits of such assays
cond: source organism: Vaccinia virus WR
One number for each entry, as −log10 of the molar value.

The examples below pair each entry with its known result.
INSERT INTO assay_data (sequence_text, quantitative_readout) VALUES
  ('MPTYKHLIMF', 6.07),
  ('NPLFHGGEPI', 5.35),
  ('YPEYNRAVKF', 6.07),
  ('FPGDKTSYWV', 7.30),
  ('DPMVIENGI', 7.46);

Continue with the next sequence.
The sequence KTSTLIFFV on HLA-B*51:01: pKd was 4.94

====

target: HLA-B*45:06
assay.procedure: IEDB peptide-MHC binding, purified MHC/competitive/fluorescence; filed as Kd, often an IC50 or EC50 that approximates it; bounds were set here for any values at or beyond the usual limits of such assays
cond: source organism: Mycobacterium tuberculosis variant bovis BCG str. Pasteur 1173P2
reported.property: Kd

The sequence listed as RWRWFRAAM has a reported Kd of ≥ 5 µM

====

target: HLA-A*29:02
assay.procedure: IEDB peptide-MHC binding, purified MHC/competitive/fluorescence; filed as Kd, often an IC50 or EC50 that approximates it; bounds were set here for any values at or beyond the usual limits of such assays
cond: source organism: Brucella suis ATCC 23445
reported.property: pKd
Give bare numbers, as −log10 of the molar value.

The sequence listed as AWISSMLLY has a reported pKd of 9.70

====

target: HLA-B*35:01
assay.procedure: IEDB peptide-MHC binding, purified MHC/direct/fluorescence; filed as Kd, often an IC50 or EC50 that approximates it; bounds were set here for any values at or beyond the usual limits of such assays
cond: source organism: Giardia lamblia ATCC 50803
reported.property: Kd
Please make sure the unit comes right after the number.

The sequence listed as SYPPPPASF has a reported Kd of 1.59 µM

====

target: HLA-B*40:01
assay.procedure: IEDB peptide-MHC binding, purified MHC/competitive/fluorescence; filed as Kd, often an IC50 or EC50 that approximates it; bounds were set here for any values at or beyond the usual limits of such assays
cond: source organism: Vaccinia virus L-IPV
reported.property: Kd

The sequence listed as SHEQGDIAL has a reported Kd of ≥ 20 µM

Attribution: the Immune Epitope Database (IEDB)
